Measured DC50 by item
# measured target: BTK (Homo sapiens)
# Sequence (Q06187 whole entry): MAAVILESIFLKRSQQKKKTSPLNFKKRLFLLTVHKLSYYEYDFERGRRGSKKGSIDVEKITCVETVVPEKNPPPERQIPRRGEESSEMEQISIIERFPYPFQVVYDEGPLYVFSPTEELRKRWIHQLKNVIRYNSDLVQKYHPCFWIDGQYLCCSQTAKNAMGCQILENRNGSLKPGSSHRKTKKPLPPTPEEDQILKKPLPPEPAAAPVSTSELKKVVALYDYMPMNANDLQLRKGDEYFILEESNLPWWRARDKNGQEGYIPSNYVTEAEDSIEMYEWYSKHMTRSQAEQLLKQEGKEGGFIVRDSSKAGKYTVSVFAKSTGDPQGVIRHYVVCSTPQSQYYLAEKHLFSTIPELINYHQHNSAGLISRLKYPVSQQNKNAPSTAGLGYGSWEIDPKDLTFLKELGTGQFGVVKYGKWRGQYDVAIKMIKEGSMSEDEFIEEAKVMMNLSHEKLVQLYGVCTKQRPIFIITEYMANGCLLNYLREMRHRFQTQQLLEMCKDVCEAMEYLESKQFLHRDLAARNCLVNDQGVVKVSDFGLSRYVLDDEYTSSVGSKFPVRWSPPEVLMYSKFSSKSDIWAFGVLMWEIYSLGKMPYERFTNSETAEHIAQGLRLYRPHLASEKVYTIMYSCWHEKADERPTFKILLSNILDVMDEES
# experiment description: Degradation of BTK protein in Namalwa cells (Western blot; DC50, Dmax)
# applied conditions: read-out: DC50 (BTK degradation); concentration giving 50% reduction of BTK expression level; cell line not given

compound	measured target	DC50
Nc1ncnc2c1c(-c1ccc(Oc3ccccc3)cc1)nn2C1CCN(CC2CN(CC3CCN(c4ccc5c(c4)CN(C4CCC(=O)NC4=O)C5=O)CC3)C2)CC1 (stereo not drawn) [Compound 440]	BTK (Homo sapiens)	< 10 nM
Nc1ncnc2c1c(-c1ccc(Oc3ccccc3)cc1)nn2C1CCN(CCN2CCC(N3CCN(c4ccc5c(c4)C(=O)N(C4CCC(=O)NC4=O)C5=O)CC3)C2)CC1 (single isomer, unassigned) [Compound 459a]	BTK (Homo sapiens)	10 to 50 nM
Nc1ncnc2c1c(-c1ccc(Oc3ccccc3)cc1)nn2[C@@H]1CCCN(C2CCN(C(=O)N3CC(N4CCN(c5ccc6c(c5)C(=O)N(C5CCC(=O)NC5=O)C6=O)CC4)C3)CC2)C1 (stereo partly drawn) [Compound 475]	BTK (Homo sapiens)	< 10 nM
